B1: Cytoplasmic polyadenylation element-binding protein 2, residues 513 to 575; numbered along this chain, Q7Z5Q1 (parent)
chain: KRVEVKPYVLDDQMCDECQGARCGGKFAPFFCANVTCLQYYCEFCWANIHSRAGREFHKPLVK

# Variants of: B1
# assay.info: abundance fitness (aPCA) (normalised: wild type 0, dead -1); higher = more abundant; growth selection in yeast, the domain comes from the species named
# assay.context: Homo sapiens
experimental.readout: abundance fitness

Name the recorded abundance fitness for KRVEVKPYVLDDIMCDECQGARCGGKFAPFFCANVTCLQYYCEFCWANIHSRAGREFHKPLVK [Q13I] .
-0.197

Would you kindly repeat that for KRVEVKPYVLDDQMCDECQGARCGGKFAPFFCANVTCLQYYCEFCWANIHSRAGREFHKPYVK [L61Y] ?
-0.197

Would you kindly repeat that for KRVEVKPYVLDDQMCDECQGARCGGKFAPFFCANVTCLQYYCEFCGANIHSRAGREFHKPLVK [W46G] ?
-0.567

Would you kindly repeat that for KRVEVKPYVLDDQMCDECQQARCGGKFAPFFCANVTCLQYYCEFCWANIHSRAGREFHKPLVK [G20Q] ?
-0.582

Would you kindly repeat that for KRVEVKPYVLDDQMCDEKQGARCGGKFAPFFCANVTCLQYYCEFCWANIHSRAGREFHKPLVK [C18K] ?
-0.677

Would you kindly repeat that for KRVEVKPYVLDDQMCDECQGARCGGKFAPFFCANVTCLQYYCEFCWANSHSRAGREFHKPLVK [I49S] ?
-0.015

Would you kindly repeat that for KRVEVKPYVLFDQMCDECQGARCGGKFAPFFCANVTCLQYYCEFCWANIHSRAGREFHKPLVK [D11F] ?
-0.149

Would you kindly repeat that for KRVEVKPYVLDDEMCDECQGARCGGKFAPFFCANVTCLQYYCEFCWANIHSRAGREFHKPLVK [Q13E] ?
-0.358

Would you kindly repeat that for KRVEVKPYVQDDQMCDECQGARCGGKFAPFFCANVTCLQYYCEFCWANIHSRAGREFHKPLVK [L10Q] ?
0.121

Would you kindly repeat that for KRVEVKPYVLDDQMCDECQGARCQGKFAPFFCANVTCLQYYCEFCWANIHSRAGREFHKPLVK [G24Q] ?
0.066

Would you kindly repeat that for FRVEVKPYVLDDQMCDECQGARCGGKFAPFFCANVTCLQYYCEFCWANIHSRAGREFHKPLVK [K1F] ?
-0.292

Would you kindly repeat that for KRVEVKPYVLDDQMCDECQGARCGGKFAPFFCANVTCLQYYCEFCWAAIHSRAGREFHKPLVK [N48A] ?
-0.001

Would you kindly repeat that for KRVEVKPYVLDDQMCDECQGARCGGKFAPFFCANVTCLQYYCEFCWANIHSRAGREFHTPLVK [K59T] ?
-0.041

Would you kindly repeat that for KRVEVKPYVLDDQMCDECQGARCGGKFAPFFCANVTCLQYYCEFCWANIHSGAGREFHKPLVK [R52G] ?
0.02

Would you kindly repeat that for KRVEVKPYVLDDQMCDECQGARCGGKPAPFFCANVTCLQYYCEFCWANIHSRAGREFHKPLVK [F27P] ?
-0.01

Would you kindly repeat that for KRVEVKPYVLDDQMCDECQGARCGGKFAPFFCANVTCLQYYQEFCWANIHSRAGREFHKPLVK [C42Q] ?
-1.21

Would you kindly repeat that for KRVEVKPYVLDDQMCDECQGARCGGKFAPFFCANVTCLQLYCEFCWANIHSRAGREFHKPLVK [Y40L] ?
-0.397

Would you kindly repeat that for KRVEVKPYVLDDQMCDECQGARCGGKFNPFFCANVTCLQYYCEFCWANIHSRAGREFHKPLVK [A28N] ?
-0.459

Would you kindly repeat that for KRVEVKPYVLDDQMCDECQGARCGGKFAPFKCANVTCLQYYCEFCWANIHSRAGREFHKPLVK [F31K] ?
-0.332

Would you kindly repeat that for KRVEVKPYVLDDQMCDECQGARCGGKLAPFFCANVTCLQYYCEFCWANIHSRAGREFHKPLVK [F27L] ?
-0.015

Would you kindly repeat that for KRVEVKPYVLDDQMWDECQGARCGGKFAPFFCANVTCLQYYCEFCWANIHSRAGREFHKPLVK [C15W] ?
-0.759

Would you kindly repeat that for KRVEVKPYVLDDQMCHECQGARCGGKFAPFFCANVTCLQYYCEFCWANIHSRAGREFHKPLVK [D16H] ?
0.076

Would you kindly repeat that for KRVEVKPYVLDDQMCDECQGARCGGKFADFFCANVTCLQYYCEFCWANIHSRAGREFHKPLVK [P29D] ?
-0.096

Would you kindly repeat that for KRVEVKPYVLDDQMCDECQGARCGGKFAPFFCANVTCLQYYCEFCWANIHSRAGRMFHKPLVK [E56M] ?
-0.154

Would you kindly repeat that for KRVEVKPYVLDDQMCDECQGARCGGKFARFFCANVTCLQYYCEFCWANIHSRAGREFHKPLVK [P29R] ?
-0.052

Would you kindly repeat that for KRVEVKPYVLDDQMCDECQGARCGGKFAPFFCANVTCLQYYCEFCWANIHPRAGREFHKPLVK [S51P] ?
-0.118

Would you kindly repeat that for KRVEVKPYVLDDQMCDECQGARCGGKFAPFFCANVTCLQYYCEFAWANIHSRAGREFHKPLVK [C45A] ?
-0.77

Would you kindly repeat that for KRVEVKPPVLDDQMCDECQGARCGGKFAPFFCANVTCLQYYCEFCWANIHSRAGREFHKPLVK [Y8P] ?
0.075

Would you kindly repeat that for KRVEVKPYVLDDQMCDECQGARCGGKFQPFFCANVTCLQYYCEFCWANIHSRAGREFHKPLVK [A28Q] ?
-0.366

Would you kindly repeat that for KRVEVKPYNLDDQMCDECQGARCGGKFAPFFCANVTCLQYYCEFCWANIHSRAGREFHKPLVK [V9N] ?
0.007

Would you kindly repeat that for KRVEVKPYVLDDQMCDECQGARCGGKFAPFFCANVTCLQYYCEFCWFNIHSRAGREFHKPLVK [A47F] ?
-0.235

Would you kindly repeat that for KRVEVKPYVLDDQMCDECQGARCGGKFAPFFCANVTCLQYYCEFCWANIHSRAGREFHKPLVA [K63A] ?
0.125

Would you kindly repeat that for KRVEVKPYVLDDQMCDECQGARCGGKFAPFFCANVTCLQYYCEFCWANIHSRAGREFHKPLVR [K63R] ?
-0.105

Would you kindly repeat that for KRVEVKPYVLDDQWCDECQGARCGGKFAPFFCANVTCLQYYCEFCWANIHSRAGREFHKPLVK [M14W] ?
-0.352

Would you kindly repeat that for KRVEVKPYVLDDQMCDECQGARCGGKFAPFFCANVTCLQYYCEFCWANIHSRAGREFPKPLVK [H58P] ?
-0.51

Would you kindly repeat that for KRVEVKPYVLDDQMCDECQGARCGGKFAPFFCANVTCLQYYCEFCWANIHSRAGREMHKPLVK [F57M] ?
0.144

Would you kindly repeat that for KRVEVKPYVLDDQMCDECTGARCGGKFAPFFCANVTCLQYYCEFCWANIHSRAGREFHKPLVK [Q19T] ?
-0.056

Would you kindly repeat that for KRVEVKPYVLDDQMCDECQGVRCGGKFAPFFCANVTCLQYYCEFCWANIHSRAGREFHKPLVK [A21V] ?
-0.098

Would you kindly repeat that for KRVEVKPYVLDDQMCDECQGARCGGKFAPFFCANVTCLQYYCEFCWANIHSRAGREFHKPLVQ [K63Q] ?
-0.044

Would you kindly repeat that for KRVEVKPYVLDDQMCDECQGARLGGKFAPFFCANVTCLQYYCEFCWANIHSRAGREFHKPLVK [C23L] ?
-0.285

Would you kindly repeat that for KRVEVKPYVLDDQMCDELQGARCGGKFAPFFCANVTCLQYYCEFCWANIHSRAGREFHKPLVK [C18L] ?
-0.966

Would you kindly repeat that for KRVEVKPYVLDDQMCDECQGARCGGKFAFFFCANVTCLQYYCEFCWANIHSRAGREFHKPLVK [P29F] ?
-0.31

Would you kindly repeat that for KRVEVKPYVLDDQMCDECQGARCGGKGAPFFCANVTCLQYYCEFCWANIHSRAGREFHKPLVK [F27G] ?
-0.061

Would you kindly repeat that for KRVEVKPYVLDDQMCDECQGARCGGKFAPFFCANWTCLQYYCEFCWANIHSRAGREFHKPLVK [V35W] ?
-0.29

Would you kindly repeat that for KRVEVKPYVLDDQMCDECQGARCGGKFAPFFCANVTCLQYYCWFCWANIHSRAGREFHKPLVK [E43W] ?
-0.136

Would you kindly repeat that for KRVEVKPYVLIDQMCDECQGARCGGKFAPFFCANVTCLQYYCEFCWANIHSRAGREFHKPLVK [D11I] ?
0.022
